# system: Histidine--tRNA ligase (Trypanosoma cruzi (strain CL Brener)) (UniProt Q4DA54)
# Sequence (whole entry): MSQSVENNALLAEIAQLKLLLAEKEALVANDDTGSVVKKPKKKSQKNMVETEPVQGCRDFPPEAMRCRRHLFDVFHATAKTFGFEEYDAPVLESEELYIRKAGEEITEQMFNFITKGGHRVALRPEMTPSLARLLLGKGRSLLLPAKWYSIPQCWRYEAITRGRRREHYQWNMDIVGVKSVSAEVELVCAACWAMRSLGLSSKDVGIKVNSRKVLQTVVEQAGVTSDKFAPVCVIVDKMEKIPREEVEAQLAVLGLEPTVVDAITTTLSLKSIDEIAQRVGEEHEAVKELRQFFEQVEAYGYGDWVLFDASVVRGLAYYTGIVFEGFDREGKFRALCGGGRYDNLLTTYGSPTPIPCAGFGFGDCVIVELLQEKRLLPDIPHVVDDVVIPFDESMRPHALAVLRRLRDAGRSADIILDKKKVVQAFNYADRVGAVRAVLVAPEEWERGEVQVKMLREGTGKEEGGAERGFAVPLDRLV
# assay-text: Trypanosoma cruzi histidyl tRNA synthetase (Tc-HisRS)
# Format: functional
# Set-up: scale not given: direction of the effect not stated beside the values
# test-parameters: 30 µM
Screen size: about 69,000 compounds; about 30 (0.04%) showed an effect of 50% or more. This excerpt belongs to a sample that is enriched for strong results.

| compound | Percent Effect |
| --- | --- |
| CCN1CC[C@@]2(C(=O)N3CCOCC3)CCN(C(=O)C(C)C)CC[C@@H]12 | 4.85% |
| CNc1nc2c(s1)C(c1c(Cl)cccc1Cl)CC(=O)N2 (configuration not stated) | 31.5% |
| CO[C@H]1C[C@@H]2CN(C(=O)c3ccc(C)s3)C[C@@H]2C1 | 8.05% |
| O=C(c1cnccn1)N1C[C@@H]2CCN(c3cccnc3)C[C@@H]2C1 | 2.96% |
| CN1CCN2CCN(Cc3cnc(NCc4ccccc4)nc3)CC2C1 (configuration not stated) | 9.88% |
| CC1CCN(c2ccc(C(=O)N3CCCC3c3nncn3C)cn2)CC1 (configuration not stated) | 3.87% |
| O=C1C[C@H]2[C@@H](CCN2C(=O)Cc2cccs2)N1Cc1cccnc1 | 0.752% |
| CC1CCN(c2ccc(C(=O)N3CCCC3c3ccc[nH]3)cn2)CC1 (configuration not stated) | 66.8% |
| Cc1noc([C@@H]2C[C@H]3OCC[C@H]3N(Cc3cc(C)c(C)o3)C2)n1 | 8.87% |
| Cc1ccc(N2CCN(C(=O)CN3C[C@@H]4CC[C@H]3C4)CC2=O)cc1 | 6.47% |
| CNc1nc2c(s1)C(c1cccc(Cl)c1Cl)CC(=O)N2 (configuration not stated) | 34.8% |
| CCOC(=O)[C@]12CCCN(Cc3nccs3)C[C@H]1CN(S(C)(=O)=O)C2 | 6.45% |
| CC(C)N1CCN(c2ccc3ccc(C(=O)NC4CCCC4)cn23)CC1 | 60.2% |
| O=C(NC1CC1)c1ccc2ccc(N3CCN(CC4CC4)CC3)n2c1 | 45.1% |
| COCCNC(=O)c1ccc2ccc(N3CCN(CC4CC4)CC3)n2c1 | 38.8% |
| CN(C)C(=O)COC[C@]12COC[C@H]1CN(Cc1ccccc1)C2 | 4.67% |
| Cc1ccc(S(=O)(=O)N2C[C@H]3C[C@H](NC(=O)c4ccnn4C)[C@H]3C2)cc1 | 5.95% |
| O=C(NCc1cnn2cccnc12)c1cccc(CC2CCNCC2)c1 | 85.5% |
| COc1cc(N2CC[C@H]3O[C@@H](C(=O)NC4CCCC4)CC[C@H]32)ncn1 | 0% |
| O=C1[C@@H]2CCN(Cc3ccc(F)cc3)C[C@@H]2OCCN1c1cccnc1 | 8.02% |
| CS(=O)(=O)N1C[C@H]2C[C@H](C(=O)N3CCOCC3)[C@@H](C1)O2 | 4.85% |
| O=C(NC1CC1)N1C[C@H]2CN(Cc3cccc(F)c3)C(=O)[C@H]2C1 | 5.88% |
